Sourced from ChEMBL document CHEMBL4339255

Kindly state selectivity ratio for each of the entries shown.
PROTOCOL_SUMMARY: Therapeutic index, ratio of CC50 for toxicity in C8166 cells to EC50 for antiviral activity against HIV1 3B infected in human C8166 cells
Type: cell-based
MEASUREMENT_CONDITIONS: read-out: Ratio CC50/EC50
One number for each entry.

Sample answers from the record:
INSERT INTO assay_data (chemical_string, value_observed) VALUES
  ('COC(=O)C[C@H]1C[C@@]2(S[C@@]34C[C@H](CC(=O)O[C@H]5OC(C(=O)O)=C[C@@H](O)[C@@H]5O)O[C@@H](C)[C@@]3(O)C(=O)c3c(O)cccc3C4=O)C(=O)c3cccc(O)c3C(=O)[C@]2(O)[C@H](C)O1', 22.5),
  ('COC(=O)C[C@H]1C[C@@]2(S[C@@]34C[C@H](CCO[C@H]5O[C@@H](C(=O)OC)[C@H](O)[C@@H](O)[C@@H]5O)O[C@@H](C)[C@@]3(O)C(=O)c3c(O)cccc3C4=O)C(=O)c3cccc(O)c3C(=O)[C@]2(O)[C@H](C)O1', 4.2),
  ('COC(=O)C[C@H]1C[C@@]2(S[C@@]34C[C@H](CC(=O)O[C@H]5O[C@@H](C(=O)O)[C@H](O)[C@@H](O)[C@@H]5O)O[C@@H](C)[C@@]3(O)C(=O)c3c(O)cccc3C4=O)C(=O)c3cccc(O)c3C(=O)[C@]2(O)[C@H](C)O1', 5.4);

# context switch: different compound, same selectivity ratio
*Q* For the compound shown here, COC(=O)C[C@H]1C[C@@]2(S[C@@]34C[C@H](CCO[C@H]5O[C@@H](C(=O)O)[C@H](O)[C@@H](O)[C@@H]5O)O[C@@H](C)[C@@]3(O)C(=O)c3c(O)cccc3C4=O)C(=O)c3cccc(O)c3C(=O)[C@]2(O)[C@H](C)O1 , give the reported selectivity ratio.
*A* 5.9

###

Kindly state CC50 at 72 h for each of the entries shown.
PROTOCOL_SUMMARY: Toxicity in human C8166 cells assessed as reduction in cell viability incubated for 72 hrs by MTT assay
Assay type: cell-based
Answers are plain numbers, in µM.

Sample answers from the record:
INSERT INTO assay_data (chemical_string, unit_text, value_observed) VALUES
  ('COC(=O)C[C@H]1C[C@@]2(S[C@@]34C[C@H](CC(=O)O[C@H]5OC(C(=O)O)=C[C@@H](O)[C@@H]5O)O[C@@H](C)[C@@]3(O)C(=O)c3c(O)cccc3C4=O)C(=O)c3cccc(O)c3C(=O)[C@]2(O)[C@H](C)O1', 'µM', 63.7),
  ('COC(=O)C[C@H]1C[C@@]2(S[C@@]34C[C@H](CCO[C@H]5O[C@@H](C(=O)OC)[C@H](O)[C@@H](O)[C@@H]5O)O[C@@H](C)[C@@]3(O)C(=O)c3c(O)cccc3C4=O)C(=O)c3cccc(O)c3C(=O)[C@]2(O)[C@H](C)O1', 'µM', 36.4),
  ('COC(=O)C[C@H]1C[C@@]2(S[C@@]34C[C@H](CC(=O)O[C@H]5O[C@@H](C(=O)O)[C@H](O)[C@@H](O)[C@@H]5O)O[C@@H](C)[C@@]3(O)C(=O)c3c(O)cccc3C4=O)C(=O)c3cccc(O)c3C(=O)[C@]2(O)[C@H](C)O1', 'µM', 52);

# context switch: different compound, same CC50 at 72 h
*Q* For the compound shown here, COC(=O)C[C@H]1C[C@@]2(S[C@@]34C[C@H](CCO[C@H]5O[C@@H](C(=O)O)[C@H](O)[C@@H](O)[C@@H]5O)O[C@@H](C)[C@@]3(O)C(=O)c3c(O)cccc3C4=O)C(=O)c3cccc(O)c3C(=O)[C@]2(O)[C@H](C)O1 , give the reported CC50 at 72 h.
*A* 56.4
